Please respond with reported Inh (PKA) for every item in the list.
# System: PRKACA-PRKAR2A interaction (SmBiT-PRKACA / LgBiT-PRKAR2A), protein kinase A
# Set-up: NanoLuc complementation counter-screen in cell extract, PRKACA with PRKAR2A, loss of luminescence, detects NanoLuc interference
# Particulars: counter-screen for NanoLuc interference, 0.5 h, 20 µM, inhibitor, Inh (PKA)
Structures can show the parent of a compound that is named as a salt.
Answer with a number only, understood to be in %.

Q: Using the record for N#CC[C@H](C1CCCC1)n1cc(-c2ncnc3[nH]ccc23)cn1 [UM0141500:01, Ruxolitinib (INCB018424)] , report its Inh (PKA).
A: 28.73

Q: Using the record for Clc1ccc(Nc2nnc(Cc3ccncc3)c3ccccc23)cc1 [UM0127963:03, Vatalanib] , report its Inh (PKA).
A: 29.07

Q: Using the record for CC(=O)O[C@@]12CO[C@@H]1C[C@H](O)[C@@]1(C)C(=O)[C@H](O)C3=C(C)[C@@H](OC(=O)[C@H](O)[C@@H](NC(=O)OC(C)(C)C)c4ccccc4)C[C@@](O)([C@@H](OC(=O)c4ccccc4)[C@H]21)C3(C)C [UM0141830:01, Docetaxel] , report its Inh (PKA).
A: 0.7441

Q: Using the record for CN(c1ncccc1CNc1nc(Nc2ccc3c(c2)CC(=O)N3)ncc1C(F)(F)F)S(C)(=O)=O [UM0142004:01, PF-562271 HCl] , report its Inh (PKA).
A: 48.82

Q: Using the record for O=C(O)/C=C/c1ccc(Cn2ccnc2)cc1 [UM0134313:02, Ozagrel HCl] , report its Inh (PKA).
A: -0.66

Q: Using the record for O=C(O)Cc1ccccc1Nc1c(Cl)cccc1Cl [UM0142522:01, Diclofenac] , report its Inh (PKA).
A: 9.074

Q: Using the record for Cn1c(=O)cc(N2CCC[C@@H](N)C2)n(Cc2ccccc2C#N)c1=O [UM0141514:01, Alogliptin Benzoate] , report its Inh (PKA).
A: 3.371

Q: Using the record for Nc1nc2[nH]cc(CCc3ccc(C(=O)N[C@@H](CCC(=O)O)C(=O)O)cc3)c2c(=O)[nH]1 [UM0141598:01, Pemetrexed disodium hemipenta hydrate] , report its Inh (PKA).
A: 0.5825

Q: Using the record for NCC1(CC(=O)O)CCCCC1 [UM0142295:01, Gabapentin HCl] , report its Inh (PKA).
A: 0.4431

Q: Using the record for Cc1cccc(-c2[nH]c(C(C)(C)C)nc2-c2ccc3c(c2)OCO3)n1 [UM0127976:02, SB-505124 hydrochloride] , report its Inh (PKA).
A: 12.14

Q: Using the record for CS(=O)(=O)CCNCc1ccc(-c2ccc3ncnc(Nc4ccc(OCc5cccc(F)c5)c(Cl)c4)c3c2)o1 [UM0130979:02, Lapatinib Ditosylate] , report its Inh (PKA).
A: 54.72

Q: Using the record for CCN(C)C(=O)Oc1cccc([C@H](C)N(C)C)c1 [UM0141620:01, Rivastigmine] , report its Inh (PKA).
A: 1.357

Q: Using the record for O=c1c(O)c(-c2ccc(O)c(O)c2)oc2cc(O)cc(O)c12 [UM0133552:02, Quercetin dihydrate] , report its Inh (PKA).
A: 33.9

Q: Using the record for NCCc1c[nH]cn1 [UM0142362:01, Histamine Phosphate] , report its Inh (PKA).
A: -0.9808
